- tgt: FGFR3 (Homo sapiens (Human), UniProt P22607)
- Sequence (P22607 23-806): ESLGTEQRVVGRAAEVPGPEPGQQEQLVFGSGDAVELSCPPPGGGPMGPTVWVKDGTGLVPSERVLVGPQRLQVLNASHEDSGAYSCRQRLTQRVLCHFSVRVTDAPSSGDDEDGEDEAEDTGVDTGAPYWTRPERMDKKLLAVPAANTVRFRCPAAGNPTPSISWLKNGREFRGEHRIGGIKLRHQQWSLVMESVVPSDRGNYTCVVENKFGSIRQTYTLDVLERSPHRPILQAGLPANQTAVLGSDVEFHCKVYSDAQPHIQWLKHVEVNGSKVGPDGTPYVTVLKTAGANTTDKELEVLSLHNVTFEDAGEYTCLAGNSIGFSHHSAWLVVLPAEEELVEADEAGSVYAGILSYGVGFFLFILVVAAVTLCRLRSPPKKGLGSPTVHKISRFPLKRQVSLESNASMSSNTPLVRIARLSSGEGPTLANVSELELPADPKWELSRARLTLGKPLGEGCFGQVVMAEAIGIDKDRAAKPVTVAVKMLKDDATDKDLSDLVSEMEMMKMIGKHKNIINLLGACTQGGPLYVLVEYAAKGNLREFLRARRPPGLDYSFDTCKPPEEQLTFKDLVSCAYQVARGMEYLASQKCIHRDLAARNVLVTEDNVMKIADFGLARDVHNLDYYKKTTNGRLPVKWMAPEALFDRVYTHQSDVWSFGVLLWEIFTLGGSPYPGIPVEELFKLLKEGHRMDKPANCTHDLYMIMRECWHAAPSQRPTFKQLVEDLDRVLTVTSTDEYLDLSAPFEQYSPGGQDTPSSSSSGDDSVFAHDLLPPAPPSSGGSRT
- experimentDescription: FGFR biochemical assay (LanthaScreen TR-FRET kinase assay), FGFR3
pIC50: −log10 of the molar value.
reportedMetric: pIC50

[[record]]
smilesrecord = "C=CC(=O)Nc1ccc(-c2c(-c3ccc(OC)cc3)c(C(N)=O)c3cnccn23)cc1"
readoutvalue = "6.00 to 7.00"


What value of measured pIC50 is listed for C=C(F)C(=O)Nc1ccc(-c2c(-c3ccc(Oc4ncc(F)c(C)n4)c(F)c3)c(C(N)=O)c3cnc(C)cn23)cc1 ?
7.00 to 8.00

What value of measured pIC50 is listed for C=C(F)C(=O)N1CC2(CC2)c2cc(-c3c(-c4ccc(Oc5nccc(C)n5)c(F)c4)c(C(N)=O)c4cnc(C)cn34)c(F)cc21 ?
7.00 to 8.00

What value of measured pIC50 is listed for C=CC(=O)Nc1ccc(-c2c(-c3ccc(Oc4cccc(C)n4)cc3)c(C(N)=O)c3n2CCN(C)C3)cc1 ?
6.00 to 7.00

What value of measured pIC50 is listed for C=CC(=O)Nc1ccc(-c2c(-c3ccc(Oc4nccc(C)n4)c(F)c3)c(C(N)=O)c3cnc(C)cn23)cc1C ?
6.00 to 7.00

----------
- tgt: FGFR1 (Homo sapiens (Human))
- Sequence (P11362 22-822): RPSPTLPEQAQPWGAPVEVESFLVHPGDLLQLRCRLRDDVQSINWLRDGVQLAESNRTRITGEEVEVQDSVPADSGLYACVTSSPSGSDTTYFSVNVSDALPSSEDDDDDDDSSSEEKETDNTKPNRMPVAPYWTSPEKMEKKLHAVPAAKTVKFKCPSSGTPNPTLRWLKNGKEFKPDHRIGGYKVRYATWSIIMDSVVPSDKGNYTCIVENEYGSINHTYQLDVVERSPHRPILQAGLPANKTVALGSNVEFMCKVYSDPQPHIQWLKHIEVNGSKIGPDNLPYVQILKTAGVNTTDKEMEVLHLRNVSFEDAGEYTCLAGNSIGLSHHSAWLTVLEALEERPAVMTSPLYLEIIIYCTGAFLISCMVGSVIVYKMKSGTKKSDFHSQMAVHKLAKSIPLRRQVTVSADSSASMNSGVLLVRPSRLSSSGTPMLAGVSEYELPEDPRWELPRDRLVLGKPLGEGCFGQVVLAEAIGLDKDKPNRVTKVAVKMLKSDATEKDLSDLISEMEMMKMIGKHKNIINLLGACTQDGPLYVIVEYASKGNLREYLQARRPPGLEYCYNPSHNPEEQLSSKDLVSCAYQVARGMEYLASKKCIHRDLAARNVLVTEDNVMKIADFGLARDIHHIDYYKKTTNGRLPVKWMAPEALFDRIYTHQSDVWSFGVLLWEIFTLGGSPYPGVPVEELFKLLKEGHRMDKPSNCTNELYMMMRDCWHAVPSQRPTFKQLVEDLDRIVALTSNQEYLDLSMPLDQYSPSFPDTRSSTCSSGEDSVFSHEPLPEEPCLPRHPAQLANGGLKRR
- experimentDescription: FGFR biochemical assay (LanthaScreen TR-FRET kinase assay), FGFR1
pIC50: −log10 of the molar value.
// reported pIC50 per item

Reference set (10 entries):
[[record]]
smilesrecord = "C=C(F)C(=O)Nc1ccc(-c2c(-c3ccc(Oc4nccc(C)n4)c(F)c3)c(C(N)=O)c3ccccn23)cc1"
tgt = "FGFR1 (Homo sapiens (Human))"
readoutvalue = "6.00 to 7.00"

[[record]]
smilesrecord = "C=C(F)C(=O)Nc1ccc(-c2c(-c3ccc(Oc4nccc(C)n4)c(F)c3)c(C(N)=O)c3cc(C4CC4)ncn23)cc1"
tgt = "FGFR1 (Homo sapiens (Human))"
readoutvalue = "7.00 to 8.00"

[[record]]
smilesrecord = "C=CC(=O)Nc1ccc(-c2c(-c3ccc(C(=O)NCC4(F)COC4)cc3)c(C(N)=O)c3cnc(C)cn23)cc1"
tgt = "FGFR1 (Homo sapiens (Human))"
readoutvalue = "7.00 to 8.00"

[[record]]
smilesrecord = "C=C(F)C(=O)Nc1ccc(-c2c(-c3ccc(Oc4nccc(C)n4)c(F)c3)c(C(N)=O)c3cc(C)cnn23)cc1"
tgt = "FGFR1 (Homo sapiens (Human))"
readoutvalue = "7.00 to 8.00"

[[record]]
smilesrecord = "Cc1cn2c(-c3ccc(NC(=O)/C=C/CN(C)C)cc3)c(-c3ccc(Oc4cccc(C)n4)cc3)c(C(N)=O)c2cn1"
tgt = "FGFR1 (Homo sapiens (Human))"
readoutvalue = "6.00 to 7.00"

[[record]]
smilesrecord = "C=C(F)C(=O)Nc1ccc(-c2c(-c3ccc(Oc4nccc(C)n4)cc3)c(C(N)=O)c3cnc(CCO)cn23)c(F)c1"
tgt = "FGFR1 (Homo sapiens (Human))"
readoutvalue = "7.00 to 8.00"

[[record]]
smilesrecord = "C=CC(=O)Nc1ccc(-c2c(-c3ccc(Oc4cccc(C)n4)cc3)c(C(N)=O)c3ccncn23)cc1"
tgt = "FGFR1 (Homo sapiens (Human))"
readoutvalue = "6.00 to 7.00"

[[record]]
smilesrecord = "C=C(F)C(=O)Nc1ccc(-c2c(-c3ccc(Oc4nccc(C)n4)c(F)c3)c(C(N)=O)c3cnc(CCO)cn23)c(F)c1"
tgt = "FGFR1 (Homo sapiens (Human))"
readoutvalue = "7.00 to 8.00"

[[record]]
smilesrecord = "C=C(F)C(=O)N1CCc2cc(-c3c(-c4ccc(Oc5nccc(C)n5)c(F)c4)c(C(N)=O)c4cnc(C)cn34)ccc21"
tgt = "FGFR1 (Homo sapiens (Human))"
readoutvalue = "6.00 to 7.00"

[[record]]
smilesrecord = "C=CC(=O)Nc1ccc(-c2c(-c3ccc(Oc4nccc(C)n4)cc3)c(C(N)=O)c3cnc(C)cn23)cc1OC"
tgt = "FGFR1 (Homo sapiens (Human))"
readoutvalue = "6.00 to 7.00"


What value of measured pIC50 is listed for C=C(F)C(=O)N1CCc2cc(-c3c(-c4ccc(Oc5nccc(C)n5)c(F)c4)c(C(N)=O)c4cnc(C)cn34)c(F)cc21 ?
7.00 to 8.00

What value of measured pIC50 is listed for C=C(F)C(=O)Nc1ccc(-c2c(-c3ccc(Oc4nccc(C)n4)cc3)c(C(N)=O)c3cnc(CCO)cn23)cc1 ?
6.00 to 7.00

What value of measured pIC50 is listed for C=C(F)C(=O)Nc1ccc(-c2c(-c3ccc(Oc4nccc(C)n4)c(F)c3)c(C(N)=O)c3cnc(C)cn23)cn1 ?
7.00 to 8.00

What value of measured pIC50 is listed for C=C(F)C(=O)Nc1ccc(-c2c(-c3ccc(Oc4nccc(C)n4)c(F)c3)c(C(N)=O)c3ccc(C)nn23)c(C)c1 ?
7.00 to 8.00

What value of measured pIC50 is listed for C=C(F)C(=O)Nc1ccc(-c2c(-c3ccc(Oc4ncc(F)c(C)n4)c(F)c3)c(C(N)=O)c3cnc(C)cn23)cc1 ?
6.00 to 7.00

What value of measured pIC50 is listed for C=C(F)C(=O)Nc1ccc(-c2c(-c3ccc(Oc4nccc(C)n4)c(F)c3)c(C(N)=O)c3cc(-c4cnn(C)c4)ncn23)cc1 ?
7.00 to 8.00

What value of measured pIC50 is listed for C=CC(=O)N1CC2(CC=C(c3c(-c4ccc(Oc5nccc(C)n5)cc4)c(C(N)=O)c4cnc(C)cn34)CC2)C1 ?
6.00 to 7.00

What value of measured pIC50 is listed for C=CC(=O)Nc1ccc(-c2c(-c3ccc(C(=O)N4CC5(CCC5)C4)cc3)c(C(N)=O)c3cnccn23)cc1 ?
6.00 to 7.00
